Test system: L1210 leukemia ip in BDF1 mice, survival T/C
Test: NCI In Vivo Anticancer Drug Screen. Data for tumor model L1210 Leukemia (intraperitoneal) in B6D2F1 (BDF1) mice
Settings: endpoint: mean survival time; dose: 200.0 mg/kg/injection; schedule: Q01DX009 (ip); vehicle: saline with Tween-80; higher = longer survival
Inconclusive results and toxic doses are left out.
property: T/C

Request: State the recorded T/C for this entry: COC(=O)CCN(c1ccccc1)c1ccc(C)cc1
Response: 92 % of control

Request: What value of T/C has been reported for the following molecule? Br/C(=N\Nc1nn[nH]n1)c1ccccc1
Response: 98 % of control

Request: Requested field: T/C. Item: Clc1ccc(Oc2ccc(N3C=Nc4ccc(Oc5ccc(Cl)cc5)cc4C3)cc2)cc1
Response: 96 % of control

Request: // lookup T/C for O=C(CCN1CC=C(c2ccccc2)CC1)NCc1ccccc1
Response: 93 % of control

Request: Name the reported T/C value associated with the molecule CCOC(=O)c1c[nH]c2c(OC)cccc2c1=O
Response: 88 % of control

Request: Return reported T/C; argument: CC(C)=CCC/C(C)=C/COC(=O)C(CC=C(C)C)CCN1CCN(CC=C(C)C)CC1 (centres undefined)
Response: 92 % of control

Request: Name the reported T/C value associated with the molecule C1=Cc2cccc3c2N(C1)CCC3 (tested in a mixture with another compound)
Response: 107 % of control

Request: Fill blank: measured T/C of the molecule COc1ccc(-c2nnc(-c3ccc(OC)c(Cl)c3)nn2)cc1Cl is ____.
Response: 86 % of control

Request: Record request: T/C value, item COc1cccc(OC)c1C1(O)c2c(OC)cccc2Oc2cccc(OC)c21
Response: 90 % of control

Request: Tell me the measured T/C of O=C(Oc1ccccc1Cl)c1ccccc1 , please.
Response: 116 % of control

Request: I have this molecule here, O=C(/C=C/c1ccccc1)NC(=S)Nc1ccccc1F , and I need its recorded T/C.
Response: 89 % of control

Request: Request the reported T/C associated with O=C(Nc1ccccc1C(F)(F)F)OCCSc1ccc(Cl)cc1
Response: 95 % of control

Request: Need T/C, item O=C1c2ccccc2C(=O)c2c(Nc3cccc(S(=O)(=O)N(CCO)CCO)c3)ccc(O)c21
Response: 97 % of control

Request: Returns the measured T/C for the input molecule. Input: CCOCC(=O)CC(C)(C)C
Response: 103 % of control

====

Field: T/C. Provide a value for each of the compounds that follow.
Tested on: L1210 leukemia ip in BDF1 mice, survival T/C
Assay: NCI In Vivo Anticancer Drug Screen. Data for tumor model L1210 Leukemia (intraperitoneal) in B6D2F1 (BDF1) mice
Settings: endpoint: mean survival time; dose: 400.0 mg/kg/injection; schedule: Q01DX009 (ip); vehicle: saline; higher = longer survival
Inconclusive results and toxic doses are left out.

Request: Value wanted: T/C (L1210 leukemia ip in BDF1 mice, survival T/C) of entry CCOC(=O)CNC(=O)C(CSC(c1ccccc1)(c1ccccc1)c1ccccc1)NC(c1ccccc1)(c1ccccc1)c1ccccc1 (configuration not stated)
Response: 94 % of control

Request: # returns recorded T/C (system: L1210 leukemia ip in BDF1 mice, survival T/C) for C[n+]1c(O)c(C(=O)CCl)n2ccccc21
Response: 92 % of control

Request: Param readout= T/C; system= L1210 leukemia ip in BDF1 mice, survival T/C; entry= O=CNCCNC=O ; returns value.
Response: 98 % of control

Request: Identify the measured T/C of COc1cc(Cl)ccc1NC(=O)OCCc1ccccn1 for L1210 leukemia ip in BDF1 mice, survival T/C.
Response: 97 % of control

Request: Notebook entry, L1210 leukemia ip in BDF1 mice, survival T/C assay: T/C of COC(=O)c1cc(Cl)cc(C(=O)OC)n1 = ?
Response: 100 % of control

Request: Provide the documented T/C with L1210 leukemia ip in BDF1 mice, survival T/C as the system for CC(=N/NC(N)=S)/C(C)=N/NC(N)=S
Response: 93 % of control

Request: // lookup T/C | system=L1210 leukemia ip in BDF1 mice, survival T/C | key= CC12CCCC(=O)C1CC/C(=C\c1ccco1)C2=O (configuration not stated)
Response: 114 % of control
